# ASSAY METHOD TEXT: NCI Yeast Anticancer Drug Screen. Data for the bub3 strain (AID 167)
# STUDY CONDITIONS: S. cerevisiae bub3 mutant strain, at 5.0 µM (retest, dose inferred, filed as 0.5), active compounds read high
Compounds without any hit were thinned out: in the full panel of roughly 79,000, 15% have a hit.
The entries below are paired with their reported growth inhibition.

MOLECULE: O=C1c2ccccc2-c2cc([N+](=O)[O-])c([N+](=O)[O-])cc21
UNITS: %
growth inhibition: 7
--
MOLECULE: Cc1ccc(S(=O)(=O)N/N=C2/CCC3(O)CC2(C)CCC2[C@H]3CC2(C)C)cc1 (stereo partly drawn)
UNITS: %
growth inhibition: 2
--
MOLECULE: O=C(O)CCCCCCCCCC[S+](CCO)CCO
UNITS: %
growth inhibition: 3
--
MOLECULE: O=C(COc1ccc(Br)cc1Br)N1N=C(c2ccc([N+](=O)[O-])o2)CC1(O)c1ccccc1 (stereo not drawn)
UNITS: %
growth inhibition: 7
--
MOLECULE: O=C(CC1CCCC(CC(=O)c2ccccc2)N1CCc1ccccc1)c1ccccc1 (stereo not drawn)
UNITS: %
growth inhibition: 41
--
MOLECULE: CCCCCCCCCCCC(=O)OCC(C)C
UNITS: %
growth inhibition: 0
--
MOLECULE: Cc1cc(N2C(=O)CCSC2=S)c([N+](=O)[O-])cc1C
UNITS: %
growth inhibition: 14
--
MOLECULE: CC(=O)NNc1nc(C)c(C(=O)NNC(=O)C(=O)Nc2ccc(Cl)c([N+](=O)[O-])c2)s1
UNITS: %
growth inhibition: 19
--
MOLECULE: O=C(O)COc1ccccc1C(=O)O
UNITS: %
growth inhibition: -5
--
MOLECULE: N#C/C(=C1C=C/C(=N/O)C=C/1Cl)c1ccccc1
UNITS: %
growth inhibition: 5
--
MOLECULE: CC1=CC(O)(c2ccc(-c3ccccc3Cl)cc2)OC1=O (stereo not drawn)
UNITS: %
growth inhibition: -11
--
MOLECULE: CC(=O)Oc1cc2c(=O)oc3c(OC(C)=O)c(OC(C)=O)c(OC(C)=O)c4c(=O)oc(c1OC(C)=O)c2c34
UNITS: %
growth inhibition: 45
--
MOLECULE: Cc1ccc(O)c(Cc2cccc(Cl)c2)c1
UNITS: %
growth inhibition: -22

====

# ASSAY METHOD TEXT: NCI Yeast Anticancer Drug Screen. Data for the mec2-1 strain (AID 157)
# STUDY CONDITIONS: S. cerevisiae mec2-1 strain, at 50.0 µM (retest, dose inferred, filed as 5.0)
About 79,000 compounds went through this panel and 15% of them were active in at least one assay; those are over-represented in the sample as a whole. Activity calls are given as the source filed them. Cut-off read from the data, not from the text of the source: active = growth inhibition above about 70%; inactive = the rest.
Classes used: 1.0 (active), 0.0 (inactive)

COMPOUND: O=C(NC(=O)C(F)(F)F)Nc1ccc(Cl)cc1
CLASS ASSIGNMENT: 0.0

COMPOUND: CCN(CC)Cc1cc(Nc2c3ccccc3nc3c4ccccc4n(C)c23)ccc1O
CLASS ASSIGNMENT: 0.0

COMPOUND: O=C1NC(=Nc2ccccc2)C(=Nc2ccccc2)N1c1ccccc1
CLASS ASSIGNMENT: 1.0

COMPOUND: CCNCC(O)COc1ccc2c(c1)[n+]([O-])nc(N)[n+]2[O-] (configuration not stated)
CLASS ASSIGNMENT: 1.0

COMPOUND: O=c1[nH]c(CN2CCCCC2)nn1-c1ccccc1
CLASS ASSIGNMENT: 0.0

COMPOUND: Cc1cc(C(O)(C(F)(F)F)C(F)(F)F)cc(C(O)(C(F)(F)F)C(F)(F)F)c1
CLASS ASSIGNMENT: 1.0

COMPOUND: O=C1C(=C2C(=O)c3ccccc3[N+]2=O)N([O-])c2ccccc21
CLASS ASSIGNMENT: 0.0
